From: the domain aggregation screens of Martell et al. (2025)

experimental-protocol: soluble fraction after stress (log2 fold change); higher = more stays soluble; pooled small domains, quantitative proteomics;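 further: 20 min heating vs room temperature control held 20 min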
condition-summary: stress: 75 degC
Classification field: enter Fulfilled for soluble fraction (log2) values not below -0.7, Not fulfilled for values below it.

Reference set, count: 5
>>> category("HMTGLFSPTEQTRHSKTGATLYSVKLAERIERNAFQSLKKRAKEHDGYYSSFTRSFLFDTPEDAEAFRGT")
"Fulfilled"
>>> category("HMKNQIGFKIKNARRKASISQADLSAKLGISSSYLNLIESGKRNVNVDLLLKVSDVLNIELKDLSK")
"Not fulfilled"
>>> category("HMTGGLLVHVAGAVGAPGVVSLPEGARVVDAIEAAGGAREDADTDQLNLARPVVDGEQVRVPVVGEVLE")
"Fulfilled"
>>> category("HMLTRSTVNVETGTAAIGLGKLYGVYDMSRKGLKYSFSVDSDAMTKVMEMLLPLGIKSLTVEPPS")
"Not fulfilled"
>>> category("HMLARFSGIALNTWTQADVERTFGPPMLVERVARFDGDIWTYRFMDDYEPRMAHIHIDRAGTVRQLVF")
"Not fulfilled"

Could you verify whether the entry HMQLVPGIGRLSARELEVFTLIGRGLGTSEIGKKLGVSAYTVQTHRNHIKEKLNLPNAAAITYWAIQWAHG shows soluble fraction (log2) of no less than -0.7?
Not fulfilled

HMSPSDLSAEAQKVYALLDGRELSFDTLVEESGFDTGSLLAILMRLEMKMLVEHGADQVYRRSG ?
Not fulfilled

Try this sequence too: HMSSQGQNTKTGTVTASALYVRSGAGTNYSQIGYLLKNTKVEIVGQTGSWYKIKFGSGTGYVSSKYIK
Not fulfilled
